Provide the reported normalized growth of each item.
Assay: chemical genetic growth profiling, strain panel (AID 1159580);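 note: tested at 20 µM; growth read once vehicle control cultures reached saturation at 30 °C; 1 = growth at the plate median or of vehicle wells; lower values mean less growth of the strain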
Settings: S. cerevisiae deletion strains, growth OD, locus YPR025C, strain CCL1, hits give low values
About 2,000 (36%) of roughly 5,500 compounds were called active. Inconclusive results (about 18%) are left out. This is one part of the list.
Answers are plain numbers.

COMPOUND: Cc1c(NCN2C(=O)CCC2=O)cc2c(c1[N+](=O)[O-])C(C)(C)CC2(C)C
QUANTITATIVE RESULT: 0.952
//
COMPOUND: N#CC(C#N)=NNc1cc(C(F)(F)F)ccc1OCC(F)(F)F
QUANTITATIVE RESULT: 0.923
//
COMPOUND: FC(F)(F)c1ccc(C2Sc3ccccc3N=C3c4ccccc4CC32)cc1 (stereo not given)
QUANTITATIVE RESULT: 1.02

Please state, for each entry, its recorded normalized growth.
1. N#C/C(=N/Nc1ccc(C(F)(F)F)cc1)C(=O)C1CC1
2. Cc1nc(C(F)(F)F)ccc1-c1nnc(SC(=O)c2ccc(Cl)cc2)o1

result:
[0.95, 0.877]

The values you see were collected from PubChem BioAssay AID1159580.
